Molecular target: T1, human SLC34A2 (human, UniProt O95436 1-690)
T1 construct: whole, on cells; also called human solute carrier 34 A2; NaPi2b
T1 sequence (looked up): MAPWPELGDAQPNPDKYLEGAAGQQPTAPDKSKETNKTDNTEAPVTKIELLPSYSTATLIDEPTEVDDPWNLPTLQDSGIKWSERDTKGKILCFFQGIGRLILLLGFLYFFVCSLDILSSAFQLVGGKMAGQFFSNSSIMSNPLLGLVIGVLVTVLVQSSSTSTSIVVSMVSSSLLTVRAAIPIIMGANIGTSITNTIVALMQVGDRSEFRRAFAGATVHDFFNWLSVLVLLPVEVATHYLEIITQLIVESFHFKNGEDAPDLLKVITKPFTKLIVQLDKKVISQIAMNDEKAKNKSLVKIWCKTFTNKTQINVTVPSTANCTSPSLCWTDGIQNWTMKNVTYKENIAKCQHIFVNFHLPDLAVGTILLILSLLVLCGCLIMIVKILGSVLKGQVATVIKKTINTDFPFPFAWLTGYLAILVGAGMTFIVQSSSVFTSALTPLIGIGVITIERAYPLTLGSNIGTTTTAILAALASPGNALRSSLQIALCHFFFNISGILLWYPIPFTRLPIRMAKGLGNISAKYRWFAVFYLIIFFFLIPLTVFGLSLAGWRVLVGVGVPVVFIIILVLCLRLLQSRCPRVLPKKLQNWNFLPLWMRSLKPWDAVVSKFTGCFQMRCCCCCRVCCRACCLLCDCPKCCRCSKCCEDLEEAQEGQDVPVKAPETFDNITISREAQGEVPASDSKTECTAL
Test: FACS, OVCAR3 cells
// reported Top (MFI) per item
Numeric only. Scale: MFI

Some solved cases for reference:
xi63A11D5B4 hIgG1 (antibody, V domains shown, chimeric, hIgG1) VH: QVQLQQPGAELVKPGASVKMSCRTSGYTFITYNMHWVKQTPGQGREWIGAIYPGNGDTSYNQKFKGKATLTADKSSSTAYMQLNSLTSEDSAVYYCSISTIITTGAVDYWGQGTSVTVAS VL: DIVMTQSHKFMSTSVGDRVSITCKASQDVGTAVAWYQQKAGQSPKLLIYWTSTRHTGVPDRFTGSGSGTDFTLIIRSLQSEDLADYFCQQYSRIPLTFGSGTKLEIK = 78600
63A11D5B4 VH_P1/VL hIgG1 (antibody, V domains shown, PTM-derisked chimeric, hIgG1; that P1 is the SG version follows from the humanized .p1 chains; also called 63A11D5B4.p1 hIgG1) VH: QVQLQQPGAELVKPGASVKMSCRTSGYTFITYNMHWVKQTPGQGREWIGAIYPGSGDTSYNQKFKGKATLTADKSSSTAYMQLNSLTSEDSAVYYCSISTIITTGAVDYWGQGTSVTVAS VL: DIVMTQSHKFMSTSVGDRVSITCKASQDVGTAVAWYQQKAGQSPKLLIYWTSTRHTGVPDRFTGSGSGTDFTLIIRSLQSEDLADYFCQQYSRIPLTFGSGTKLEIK = 75200

Then there is this binder:
**Query** // returns reported Top (MFI) for input xi91C9F1 hIgG1 (antibody, V domains shown, chimeric, hIgG1) VH: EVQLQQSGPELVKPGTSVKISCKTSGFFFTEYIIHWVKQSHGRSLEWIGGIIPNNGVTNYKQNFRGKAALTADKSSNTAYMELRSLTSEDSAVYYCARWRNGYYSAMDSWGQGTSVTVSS VL: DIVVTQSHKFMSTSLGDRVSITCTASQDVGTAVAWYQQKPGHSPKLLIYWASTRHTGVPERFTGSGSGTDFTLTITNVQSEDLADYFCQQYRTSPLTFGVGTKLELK
**Result** 63300

Origin of the recorded values: patent US20240301052A1
